- Assay remarks: Reported Cmax in blood at approved doses
- Type: in vivo
- Details: human, in vivo
Endpoint name: Cmax
Just so you know, I need the unit written after the number.

Request: What value of Cmax has been reported for the following compound? C[C@]12CC[C@@H]3c4ccc(O)cc4C[C@@H](CCCCCCCCC[S+]([O-])CCCC(F)(F)C(F)(F)F)[C@H]3[C@@H]1CC[C@@H]2O (stereo partly shown)
Result: 46 nM
